Where do these numbers come from? They come from ChEMBL document CHEMBL1152865.

protocol summary: Cytotoxicity against african green monkey Vero cells after 72 hrs by MTT assay
Assay type: cell-based
condition label: chlorocebus sabaeus

{"columns": ["compound", "censor symbol", "CC50 at 72 h (µM)"],
 "data": [
  ["CC1CN(c2cc3c(cc2[N+](=O)[O-])c(=O)c(C(=O)O)cn3-c2ccc(F)cc2)CC(C)O1 (stereo not drawn)", "=", 70.8],
  ["NNC(=O)c1ccncc1", ">", 456],
  ["Cc1onc(-c2c(F)cccc2F)c1C(=O)N1CCN(c2cc3c(cc2[N+](=O)[O-])c(=O)c(C(=O)O)cn3C(C)(C)C)CC1", "=", 105],
  ["O=C(O)c1cn(C2CC2)c2cc(N3CCC(N4CCCCC4)CC3)c([N+](=O)[O-])cc2c1=O", "=", 142],
  ["COc1c(N2CCNC(C)C2)c(F)cc2c(=O)c(C(=O)O)cn(C3CC3)c12 (stereo not drawn)", ">", 155],
  ["O=C(O)c1cn(C2CC2)c2cc(N3CCC(O)(c4ccc(Cl)cc4)CC3)c([N+](=O)[O-])cc2c1=O", "=", 129],
  ["CN1CCN(c2cc3c(cc2[N+](=O)[O-])c(=O)c(C(=O)O)cn3C2CC2)CC1c1ccccc1 (stereo not drawn)", "=", 136],
  ["O=C(O)c1cn(C2CC2)c2cc(N3CCN(Cc4ccc5c(c4)OCO5)CC3)c([N+](=O)[O-])cc2c1=O", "=", 127]
]}
